- testTarget: pooled human IgG (human IgG1, 2, 3 and 4)
readoutName: Enzyme Activity Endpoint Assay: Fc (ng/µL)

INSERT INTO results (protein, unitlabel, val) VALUES
  ('PRT-465 (protein) MVTSVWTKGVTPPANFTQGEDVFHAPYVANQGWYDITKTFNGKDDLLCGAATAGNMLHWWFDQNKDQIERYLKEHPEKQKINFNGEQMFDVKEAIDTKDSQTDSKLFEYFKEKAFPYLSTKHLGVFPDHVLDMFINGYRLSLTNHGPTPVKEGSKDPRGGIFDAVFTRGDQSKLLTSRHDLKNKTLKEISDLIKQELTEGKALGLSHTYANVRINHVINLWGADFDSEGNLKAIYVTDSDSNASIGMKKYFVGVNSAGKVAISAKEIKEDNIGAQVLGLFTLSTGQDIWNQTNLEHHHHHH', 'ng/µL', 296);

Reference source: patent US20250027068
